Test system: PC-3 human prostate cancer cells
Experiment: MTT assay, PC-3 cells
Type: cell-based
Details: PC-3 cells, MTT, treated for 48 h
metric: pIC50
Bear in mind: pIC50 is minus log10 of a mol/L concentration; give just that figure.

Record N.N.[Cl][Pt][Cl] [Cisplatin, reference compound] . Reported pIC50: 4.68

====

Test system: 22Rv1 human prostate cancer cells
Experiment: MTT assay, 22Rv1 cells
Assay type: cell-based
Conditions: Homo sapiens, treated for 48 h
metric: IC50 (µM)
Answer with a number only, understood to be in µM.

# example entries with known answers
CC(C)=CCC/C(C)=C/Cc1c(O)c(C(=O)c2c(-c3ccc(O)cc3O)oc3c(C/C=C(\C)CCC=C(C)C)c(O)c(O)cc23)cc2c1O[C@H]1c3ccc(O)cc3OC[C@@H]21 [Compound 8, Lespebicolin A] | 17.5
CC(C)=CCC[C@]1(C)C=Cc2c(c(O)cc3c2O[C@H]2c4ccc(O)cc4OC[C@@H]32)O1 [Compound 4] | 29.5
CC(C)=CCC/C(C)=C/Cc1c(O)c(O)cc2c3c(oc12)-c1ccc(O)cc1OC3 [Compound 1] | 20.1
CC(C)=CCC/C(C)=C/Cc1c(O)c(O)cc(C(=O)C(=O)c2ccc(O)cc2O)c1O [Compound 6] | 46.9
COc1cc2c(c(C/C=C(\C)CCC=C(C)C)c1O)O[C@H]1c3ccc(O)cc3OC[C@@H]21 [Compound 7] | 30.5

Record CC(C)=CCC/C(C)=C/Cc1c(O)c(O)cc2c1O[C@H]1c3cc(CC=C(C)C)c(O)cc3OC[C@@H]21 [Compound 3] . Reported IC50: 6.38

Record CC(C)=CCC/C(C)=C/Cc1c(O)c(O)cc2c1O[C@H]1c3ccc(O)cc3OC[C@@H]21 [Compound 2] . Reported IC50: 13.8

Record CC(C)=CCC[C@@]1(C)C=Cc2c(c(O)cc3c2O[C@H]2c4ccc(O)cc4OC[C@@H]32)O1 [Compound 5] . Reported IC50: 35.8
